system: LPS-induced TNF-α production; assay: In Vivo Rodent Assay for Inhibition of TNF-α Production (mice); set-up: species or system Mice (BALB/cJ females); settings: Mus musculus, 1 h, oral dosing, 10 mg/kg, LPS 1 mg/kg i.p., serum TNF-α
Field: inhibition in vivo at 10 mg/kg. Provide a value for each of the molecules that follow.
Numbers only, in %.

Data request: Quickly give me recorded inhibition in vivo at 10 mg/kg for `Fc1ccc(-c2cn(CCN3CCCC3)c(CCCc3ccccc3)c2-c2ccncc2)cc1`
Data returned: 99

Data request: Query inhibition in vivo at 10 mg/kg for `Cn1cc(-c2ccncc2)c(-c2cccc([N+](=O)[O-])c2)c1`
Data returned: 74

Data request: Provide only the value of recorded inhibition in vivo at 10 mg/kg for CN1CCCC1CCn1cc(-c2ccc(F)cc2)c(-c2ccncc2)c1CCCc1ccccc1 (centres unmarked)
Data returned: 100

Quick one: give me inhibition in vivo at 10 mg/kg for each item below, same order please.
1. Fc1ccc(-c2c[nH]c(CCCc3ccccc3)c2-c2ccncc2)cc1
2. Fc1ccc(-c2c[nH]cc2-c2ccncc2)cc1

Data returned:
1: 10; 2: 73

----------
system: LPS-induced TNF-α production; assay: In Vivo Rodent Assay for Inhibition of TNF-α Production (mice); set-up: species or system Mice (BALB/cJ females); conditions: Mus musculus, 1 h, oral dosing, 10 mg/kg, LPS 1 mg/kg i.p., serum TNF-α
recorded.endpoint: inhibition in vivo at 10 mg/kg (%)
Give bare numbers, in %.

Data request: Give reported inhibition in vivo at 10 mg/kg value for `Fc1ccc(-c2cn(CCCN3CCCCC3)c(CCCc3ccccc3)c2-c2ccncc2)cc1`
Data returned: 36

Please look at the items below and tell me inhibition in vivo at 10 mg/kg for each one, in order.
1. O=[N+]([O-])c1ccc(-n2cc(-c3ccc(F)cc3)c(-c3ccncc3)c2CCCc2ccccc2)cc1
2. Fc1ccc(-c2cn(CCN3CCOCC3)c(CCCc3ccccc3)c2-c2ccncc2)cc1
3. CN1CCCC(Cn2cc(-c3ccc(F)cc3)c(-c3ccncc3)c2CCCc2ccccc2)C1 (centres unmarked)
4. CC(=O)Nc1ccc(-n2cc(-c3ccc(F)cc3)c(-c3ccncc3)c2CCCc2ccccc2)cc1

Data returned:
1. 47
2. 93
3. 100
4. 48

Give one value of inhibition in vivo at 10 mg/kg per listed molecule.
1. Cn1cc(-c2ccncc2)c(-c2ccc(F)c(C(F)(F)F)c2)c1
2. CN(C)CCCn1cc(-c2ccc(F)cc2)c(-c2ccncc2)c1CCCc1ccccc1

Data returned:
1. 61
2. 100

Data request: Give the measured inhibition in vivo at 10 mg/kg for `Fc1ccc(-c2cn(CCN3CCCCC3)c(CCCc3ccccc3)c2-c2ccncc2)cc1`
Data returned: 96

----------
target: purified recombinant p38 (6×His-p38 expressed in E.coli) (Homo sapiens); construct: 6xHis; made in house; host or cells: E. coli; assay: p38 Inhibition In-Vitro Enzyme Assay; type: biochemical; settings: myelin basic protein substrate, 33P-ATP
Sequence (Q16539 whole entry): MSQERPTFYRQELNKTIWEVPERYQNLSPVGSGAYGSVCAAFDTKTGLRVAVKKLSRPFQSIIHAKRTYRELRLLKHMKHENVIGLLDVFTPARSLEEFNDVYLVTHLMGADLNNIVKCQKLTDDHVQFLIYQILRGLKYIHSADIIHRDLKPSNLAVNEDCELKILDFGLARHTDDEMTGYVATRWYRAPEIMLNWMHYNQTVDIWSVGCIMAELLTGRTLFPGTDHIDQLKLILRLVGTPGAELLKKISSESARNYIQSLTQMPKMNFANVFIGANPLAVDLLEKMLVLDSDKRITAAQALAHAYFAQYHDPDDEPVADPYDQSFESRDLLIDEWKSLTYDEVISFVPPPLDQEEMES
recorded.endpoint: % p38 inhib @ 10 μM (%)
Give bare numbers, in %.

Data request: Give the reported value of % p38 inhib @ 10 μM for this record: COc1cccc(-c2cn(C)cc2-c2ccncc2)c1 [compound 14]
Data returned: 43

Report % p38 inhib @ 10 μM for every entry below.
1. O=[N+]([O-])c1ccc(-n2cc(-c3ccncc3)c(-c3ccc(F)cc3)c2)cc1 [compound 30]
2. O=[N+]([O-])c1ccc(-n2cc(-c3ccncc3)c(-c3ccc(F)c(F)c3)c2)cc1 [compound 3]

Data returned:
70
80

Batch request: % p38 inhib @ 10 μM per item, same order as input.
1. COc1cccc(-c2cn(-c3ccc(C#N)cc3)cc2-c2ccncc2)c1 [compound 18]
2. Cn1cc(-c2ccncc2)c(-c2ccc(F)c(F)c2)c1 [compound 2]

Data returned:
1: 23; 2: 15

----------
molecular target: purified recombinant p38 (6×His-p38 expressed in E.coli) (Homo sapiens); construct: 6xHis; made in house; host or cells: E. coli; experiment: p38 Inhibition In-Vitro Enzyme Assay; format: biochemical; details: myelin basic protein substrate, 33P-ATP, read-out: % p38 inhib @ 10 μM
For each of the compounds below, state its inhibition at 10 µM.
Give bare numbers, in %.

Use the examples below as a reference point.
Data request: Return inhibition at 10 µM (reported value) for this compound: `N#Cc1ccc(-n2cc(-c3ccncc3)c(-c3ccc(F)c(F)c3)c2)cc1`
Data returned: 21

Data request: Tell me its inhibition at 10 µM given `O=[N+]([O-])c1ccc(-n2cc(-c3ccc(F)cc3)c(-c3ccncc3)c2CCCc2ccccc2)cc1` as the entry.
Data returned: 67

Data request: State its inhibition at 10 µM for this compound: `Nc1ccc(-n2cc(-c3ccc(F)cc3)c(-c3ccncc3)c2CCCc2ccccc2)cc1`
Data returned: 51

Data request: Consider the compound `Fc1ccc(-c2c[nH]c(CCCc3ccccc3)c2-c2ccncc2)cc1` . State its measured inhibition at 10 µM.
Data returned: 49

Data request: // Input: `CC(=O)Nc1ccc(-n2cc(-c3ccc(F)cc3)c(-c3ccncc3)c2CCCc2ccccc2)cc1` . Output its inhibition at 10 µM only.
Data returned: 38

Continue with the compound presented below.
Data request: Annotate the compound `Cn1cc(-c2ccncc2)c(-c2ccc(F)cc2)c1` with its measured inhibition at 10 µM.
Data returned: 34

The measured values listed here are drawn from patent US6562843B1.
